Biological target: Alpha glucosidase (Homo sapiens, UniProt O43451+P10253+P14410+Q2M2H8)
Test: Inhibition of alpha-glucosidase (unknown origin) assessed as inhibition rate at 100 uM relative to control
Format: protein assay
measured-endpoint: inhibition (%)
Dear colleague, please return just the value in %, with no unit written.

inhibition recorded for this compound, `COc1cc(C=O)ccc1OCC(=O)Nc1sc2c(c1C#N)CCCCC2` , is 7.31

Notebook: `COc1ccc(CNC(=O)Nc2sc3c(c2C#N)CCCC3)c(OC)c1` , inhibition read as 73.9

Reported inhibition of COc1cc(C=O)ccc1OCC(=O)Nc1sc2c(c1C#N)CCC(C)C2 (stereo unspecified) : 93.4

Quick note, inhibition for `COc1cc(C=O)ccc1OCC(=O)Nc1sc2c(c1C#N)CCCC2=O` landed at 45.6

Sample `COc1cc(C=O)ccc1OCC(=O)Nc1sc2c(c1C#N)CCOC2` ; inhibition observed: 67.3

Sure, the documented inhibition for `COc1cc(C=O)ccc1OCC(=O)Nc1sc2c(c1C#N)CCC2` is 70.4

inhibition in this record for COC(=O)C1CCCc2sc(NC(=O)COc3ccc(C=O)cc3OC)c(C#N)c21 (stereo unspecified) : 69.8

Recorded inhibition (compound `COc1cc(C=O)ccc1OCC(=O)Nc1sc2c(c1C#N)CCCC2` ): 70.4

Lab book: inhibition of `COc1cc(C=O)ccc1OCC(=O)Nc1sc2c(c1C#N)CCC1(C2)OCCO1` noted as 15.7

Given item COc1cc(C=O)ccc1OCC(=O)Nc1sc2c(c1C#N)CCC(O)C2 (stereo unspecified) , the value recorded as its inhibition is 86.5

Short answer for CCOC(=O)C1CCc2sc(NC(=O)COc3ccc(C=O)cc3OC)c(C#N)c21 (stereo unspecified) : inhibition was 61.5
